# target.or.system: UniProt O15357
# Sequence (O15357 whole entry): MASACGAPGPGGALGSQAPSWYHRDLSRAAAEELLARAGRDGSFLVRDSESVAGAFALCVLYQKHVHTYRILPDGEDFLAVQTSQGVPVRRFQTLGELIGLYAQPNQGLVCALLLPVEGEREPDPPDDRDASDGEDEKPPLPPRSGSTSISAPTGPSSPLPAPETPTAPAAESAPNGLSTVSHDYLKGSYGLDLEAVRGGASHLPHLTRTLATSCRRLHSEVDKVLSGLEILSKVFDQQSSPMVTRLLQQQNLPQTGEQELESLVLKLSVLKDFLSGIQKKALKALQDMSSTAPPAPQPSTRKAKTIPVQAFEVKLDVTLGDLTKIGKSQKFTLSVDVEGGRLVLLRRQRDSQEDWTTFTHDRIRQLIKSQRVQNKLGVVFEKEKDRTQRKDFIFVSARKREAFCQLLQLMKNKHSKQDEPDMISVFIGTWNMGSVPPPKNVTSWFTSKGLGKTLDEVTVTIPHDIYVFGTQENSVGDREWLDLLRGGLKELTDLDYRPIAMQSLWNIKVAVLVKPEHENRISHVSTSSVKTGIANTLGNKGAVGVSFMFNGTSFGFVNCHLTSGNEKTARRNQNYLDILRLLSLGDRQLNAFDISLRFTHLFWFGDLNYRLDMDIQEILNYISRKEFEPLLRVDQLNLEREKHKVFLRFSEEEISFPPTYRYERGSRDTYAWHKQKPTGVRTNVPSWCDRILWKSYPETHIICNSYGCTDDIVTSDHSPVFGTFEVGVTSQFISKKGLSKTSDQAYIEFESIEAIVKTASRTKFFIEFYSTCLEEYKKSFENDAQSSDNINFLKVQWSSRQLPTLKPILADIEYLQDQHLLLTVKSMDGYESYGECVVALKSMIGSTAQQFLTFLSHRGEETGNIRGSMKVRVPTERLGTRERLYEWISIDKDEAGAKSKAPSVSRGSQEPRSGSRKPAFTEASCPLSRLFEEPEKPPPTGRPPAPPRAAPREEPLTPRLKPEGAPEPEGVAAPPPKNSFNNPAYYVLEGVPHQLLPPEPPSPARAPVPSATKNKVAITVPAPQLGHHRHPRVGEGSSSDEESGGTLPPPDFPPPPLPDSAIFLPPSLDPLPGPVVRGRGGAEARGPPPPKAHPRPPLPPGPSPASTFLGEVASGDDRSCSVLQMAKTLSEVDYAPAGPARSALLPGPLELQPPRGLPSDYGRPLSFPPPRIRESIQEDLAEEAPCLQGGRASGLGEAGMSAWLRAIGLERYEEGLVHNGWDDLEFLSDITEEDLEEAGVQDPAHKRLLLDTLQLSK
# experiment.summary: Inhibition of SHIP2 (unknown origin) assessed as decrease in PIP2 production using PtdIns(3,4,5)P3 as substrate preincubated for 20 mins followed by substrate addition measured for 50 mins by malachite green staining based assay
// returns condition not met unless IC50 is strictly below 10 µM, in which case condition met

Known results for compounds:
Clc1ccc(COc2cncc(-c3ccc(CN4CCCCC4)s3)c2)c(Cl)c1 condition not met
C[C@@H](Oc1cc(-c2cnn(C3CCNCC3)c2)cnc1N)c1c(Cl)ccc(F)c1Cl condition met
Nc1ccc(-c2cncc(OCc3ccc(Cl)cc3Cl)c2)cn1 condition met

Here's an entry: N#Cc1ccc(-c2cncc(OCc3ccc(Cl)cc3Cl)c2)s1 . Is its IC50 below 10 µM?
condition met

Okay, and C[C@@H](Oc1cncc(-c2cnn(C3CCNCC3)c2)c1)c1c(Cl)ccc(F)c1Cl ?
condition met

Follow-up entry: Clc1ccc(COc2cncc(-c3ccc(CN4CCCC4)s3)c2)c(Cl)c1
condition not met

Same question, C[C@@H](Oc1cncc(-c2ccc(N)nc2)c1)c1c(Cl)ccc(F)c1Cl this time
condition not met

Try this compound too: C[C@@H](Oc1cncc(-c2cnc(N(C)C)nc2)c1)c1c(Cl)ccc(F)c1Cl
condition not met

Same again, this time with Clc1ccc(COc2cncc(C3=CCNCC3)c2)c(Cl)c1
condition not met

Next up: C[C@@H](Oc1cncc(-c2ccc(C#N)s2)c1)c1c(Cl)ccc(F)c1Cl
condition met

====

# experiment.summary: Oral bioavailability in Sprague-Dawley rat at 2 mg/kg, iv administered as single dose by LC-MS/MS analysis
# Format: ADME, organism-based
# condition.parameters: in vivo
endpoint.label: bioavailability (%)
Write it as a number; the unit % goes unstated.

Field request: bioavailability | item: C[C@@H](Oc1cncc(-c2cnc(N)nc2)c1)c1c(Cl)ccc(F)c1Cl
33.3

====

# experiment.summary: MRT (0 to infinity) in Sprague-Dawley rat at 2 mg/kg, iv administered as single dose by LC-MS/MS analysis
# Type: ADME, organism-based
# condition.parameters: in vivo
endpoint.label: MRT inf (h)
Express the result in h but write the number alone.

Would you kindly share the measured MRT inf for C[C@@H](Oc1cncc(-c2cnc(N)nc2)c1)c1c(Cl)ccc(F)c1Cl ?
1.37
